meta.source: ChEMBL document CHEMBL5360622

// endpoint IC50 / system Dual specificity protein kinase CLK4 (Homo sapiens, UniProt Q9HAZ1)
recorded-metric: IC50 (nM)

>>> value_measured("COC(=O)[C@@H](CC(C)C)NC1=N/C(=C\\c2ccc3ncsc3c2)C(=O)N1")
34
>>> value_measured("CN1CCN(c2ccc(NC3=N/C(=C\\c4ccc5c(c4)OCCO5)C(=O)N3)cc2)CC1")
19
>>> value_measured("O=C1NC(N[C@H]2CN3CCC2CC3)=N/C1=C\\c1ccc2ncsc2c1")
11
>>> value_measured("O=C1NC(NCc2nc3ccccc3s2)=N/C1=C\\c1ccc2ncsc2c1")
71

1: O=C1NC(N[C@H]2c3ccccc3C[C@@H]2O)=N/C1=C\c1ccc2ncsc2c1
2: O=C1NC(NC2CCCNC2=O)=N/C1=C\c1ccc2ncsc2c1 (racemic)
Asked: Of the two listed items, 1 and 2 , which carries the larger IC50 figure? Reply with the label of the item you choose.
Given back: 2

a: CCOC[C@@H](CC(C)C)NC1=N/C(=C\c2ccc3ncsc3c2)C(=O)N1
b: O=C1NC(N[C@@H](CO)CC2CCCCC2)=N/C1=C\c1ccc2ncsc2c1
Asked: Compare reported IC50 values for a and b . Which is lower? Reply with the label of the item you choose.
Given back: a

====

biological target: Dual specificity tyrosine-phosphorylation-regulated kinase 3 (Homo sapiens)
Sequence (O43781 whole entry): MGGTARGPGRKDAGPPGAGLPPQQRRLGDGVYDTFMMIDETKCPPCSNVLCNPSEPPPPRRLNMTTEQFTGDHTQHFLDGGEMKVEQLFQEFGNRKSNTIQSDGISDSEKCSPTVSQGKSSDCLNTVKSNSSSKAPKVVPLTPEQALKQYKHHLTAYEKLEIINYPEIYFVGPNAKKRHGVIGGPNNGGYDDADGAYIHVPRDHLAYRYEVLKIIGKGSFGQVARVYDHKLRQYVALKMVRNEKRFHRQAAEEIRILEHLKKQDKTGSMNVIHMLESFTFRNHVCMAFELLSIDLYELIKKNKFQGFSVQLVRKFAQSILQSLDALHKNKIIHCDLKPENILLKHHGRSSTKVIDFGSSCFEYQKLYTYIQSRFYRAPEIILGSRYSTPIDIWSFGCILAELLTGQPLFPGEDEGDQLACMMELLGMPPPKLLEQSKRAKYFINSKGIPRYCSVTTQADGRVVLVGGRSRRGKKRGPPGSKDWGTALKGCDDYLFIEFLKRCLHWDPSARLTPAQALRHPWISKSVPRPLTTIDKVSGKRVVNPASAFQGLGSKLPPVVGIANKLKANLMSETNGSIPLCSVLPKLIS
recorded-metric: IC50 (nM)

Known IC50 results, listed for orientation:
>>> value_measured("CO[C@@H]1CCCC[C@H]1NC1=N/C(=C\\c2ccc3ncsc3c2)C(=O)N1")
1360
>>> value_measured("CN1CCN(c2cnc(NC3=N/C(=C\\c4ccc5ncsc5c4)C(=O)N3)nc2)CC1")
450
>>> value_measured("CC(C)C[C@@H](CO)NC1=N/C(=C\\c2ccc3ncsc3c2)C(=O)N1")
745

A: CC(C)(C)NC(=O)OC12CC3CC(CC(NC4=N/C(=C\c5ccc6ncsc6c5)C(=O)N4)(C3)C1)C2
B: O=C1NC(NCc2ccccc2C(F)(F)F)=N/C1=C\c1ccc2ncsc2c1
Asked: Of the two listed items, A and B , which carries the larger IC50 figure? Reply with the label of the item you choose.
Given back: B
(B: 434 nM, A: 299 nM)

====

Below, each entry is listed alongside its reported pIC50.
molecular target: Cyclin-dependent kinase 5/CDK5 activator 1 (Homo sapiens, UniProt Q00535)
Sequence (Q00535 whole entry): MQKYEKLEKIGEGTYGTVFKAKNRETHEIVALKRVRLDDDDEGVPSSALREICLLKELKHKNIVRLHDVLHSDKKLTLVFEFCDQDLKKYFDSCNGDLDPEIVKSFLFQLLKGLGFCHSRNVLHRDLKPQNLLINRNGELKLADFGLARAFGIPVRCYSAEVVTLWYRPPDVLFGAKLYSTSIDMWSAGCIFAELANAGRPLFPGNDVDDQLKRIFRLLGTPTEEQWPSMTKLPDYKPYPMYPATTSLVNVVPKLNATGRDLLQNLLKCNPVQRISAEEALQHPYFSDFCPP
Sequence (Q15078 whole entry, further chain): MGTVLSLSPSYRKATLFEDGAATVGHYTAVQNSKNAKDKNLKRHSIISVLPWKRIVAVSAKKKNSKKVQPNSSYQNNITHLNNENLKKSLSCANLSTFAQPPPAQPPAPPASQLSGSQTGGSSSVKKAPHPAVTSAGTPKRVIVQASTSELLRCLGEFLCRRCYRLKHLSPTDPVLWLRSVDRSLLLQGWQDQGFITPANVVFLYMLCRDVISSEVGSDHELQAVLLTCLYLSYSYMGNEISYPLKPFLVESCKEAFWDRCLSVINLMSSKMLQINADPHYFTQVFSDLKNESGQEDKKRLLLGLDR
pIC50: −log10 of the molar value.

Known pIC50 results, listed for orientation:
>>> value_measured("O=C1NC(NC2CCCSC2)=N/C1=C\\c1ccc2ncsc2c1 (racemic)")
5.60
>>> value_measured("O=C1NC(NC2CCC(F)(F)CC2)=N/C1=C\\c1ccc2ncsc2c1")
"< 5.00"
>>> value_measured("O=C1NC(NC2CCCCC2)=N/C1=C\\c1ccc2[nH]ccc2c1")
"< 5.00"
>>> value_measured("NC[C@H](NC1=N/C(=C\\c2ccc3ncsc3c2)C(=O)N1)c1ccccc1")
5.63
>>> value_measured("CN1CCC2(CC1)CC(NC1=N/C(=C\\c3ccc4ncsc4c3)C(=O)N1)C2")
"< 5.00"

Shifting focus to the compound that follows.
Asked: Which pIC50 is reported for this compound? O=C1NC(NC2CCCCC2)=N/C1=C\c1ccc2nnsc2c1
Given back: < 5.00

====

target: Glycogen synthase kinase-3 beta (Homo sapiens)
Sequence (P49841 whole entry): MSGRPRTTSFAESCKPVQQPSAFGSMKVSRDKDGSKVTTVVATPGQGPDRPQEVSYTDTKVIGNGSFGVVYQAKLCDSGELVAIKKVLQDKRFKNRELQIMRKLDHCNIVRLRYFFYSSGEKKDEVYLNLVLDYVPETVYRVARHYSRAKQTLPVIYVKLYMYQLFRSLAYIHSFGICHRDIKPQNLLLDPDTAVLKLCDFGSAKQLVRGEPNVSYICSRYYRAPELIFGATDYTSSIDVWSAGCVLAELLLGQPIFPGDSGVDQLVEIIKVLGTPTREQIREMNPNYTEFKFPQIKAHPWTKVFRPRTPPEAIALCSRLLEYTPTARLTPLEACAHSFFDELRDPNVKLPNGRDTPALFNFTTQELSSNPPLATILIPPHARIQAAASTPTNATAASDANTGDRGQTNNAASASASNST
pIC50: −log10 of the molar value.
recorded-metric: pIC50

Known pIC50 results, listed for orientation:
>>> value_measured("NCC(NC1=N/C(=C\\c2ccc3ncsc3c2)C(=O)N1)c1ccccc1 (stereo not given)")
6.21
>>> value_measured("O=C1NC(N[C@H]2CCCOC2)=N/C1=C\\c1ccc2ncsc2c1")
"< 5.00"
>>> value_measured("O=C1NC(N[C@@H]2CCC[C@@H]2O)=N/C1=C\\c1ccc2ncsc2c1 (racemic)")
"< 5.00"
>>> value_measured("CC1(C)CNC(=O)C1NC1=N/C(=C\\c2ccc3ncsc3c2)C(=O)N1 (racemic)")
"< 5.00"
>>> value_measured("O=C1NC(NC2CCNC2=O)=N/C1=C\\c1ccc2ncsc2c1 (racemic)")
"< 5.00"

Asked: Can you look up pIC50 on Glycogen synthase kinase-3 beta (Homo sapiens) for CO[C@@H]1CCCC[C@H]1NC1=N/C(=C\c2ccc3ncsc3c2)C(=O)N1 ?
Given back: < 5.00

Asked: Can you look up pIC50 on Glycogen synthase kinase-3 beta (Homo sapiens) for O=C1NC(NC2CCCCC2)=N/C1=C\c1ccc2c(c1)OCO2 ?
Given back: 5.08
